Test: qHTS for Inhibitors of human tyrosyl-DNA phosphodiesterase 1 (TDP1): qHTS in cells in absence of CPT; also: nearly all actives have a fitted effect of over 55% in size
Conditions: DT40 Tdp1-/- hTDP1 cells, no CPT, ATP luminescence, 48 h
Among all 420,000 compounds or so, about 64,000 (15%) were called active. Roughly 27% stayed inconclusive and do not appear here. Calls follow the shape of the dose curve; as a rule, active = well fitted inhibition curve with a large enough effect; inconclusive = small, poorly fitted or top-dose-only effect; inactive = flat fitted curve, though single readings scatter. These entries were drawn from the full list.
Permitted responses: YES (active), NO (inactive)

For orientation, consider the following solved cases.
>>> df
                                   compound  category
0  CC(OC(=O)CCC(=O)c1ccccc1)C(=O)Nc1ccc(F)cc1 (stereo not given)        NO
1  O=C(COC(=O)/C=C/c1ccc(Cl)cc1)NC1CCS(=O)(=O)C1 (stereo not given)       YES
2   COc1cccc(NC(=S)NC(=O)c2c(Cl)c(C)nn2C)c1        NO
3  C/C(=N/NC(=O)c1cc(Cl)ccc1O)C12CC3CC(CC(C3)C1)C2        NO

// next entry
What outcome does the record of this test show for `CC(=O)N1CCc2ccc(N)cc21` ?
NO
